tested on: stripped skin of volunteers (vasoconstriction / hyperemia); experiment: Vasoconstriction test on stripped skin of volunteers (topical ointment); assay type: in vivo, human (volunteers); settings: 0.01% in ointment; observation time 1 hour
Endpoint label: vasoconstriction (color value; normal skin = 100, untreated stripped skin = 0)
The response must contain the number and no unit.

C[C@@H]1C[C@H]2[C@@H]3C[C@H](F)C4=CC(=O)C=C[C@]4(C)[C@H]3[C@@H](O)C[C@]2(C)[C@H]1C(=O)CO	15
CCN1CCN(Cc2nc3ccccc3n2Cc2ccccc2O)CC1	35
CCN1CCN(Cc2nc3ccccc3n2Cc2ccc(Cl)cc2)CC1	30

Now consider a different molecule.
Look up and report measured vasoconstriction (color value; normal skin = 100, untreated stripped skin = 0) for this entry: Clc1ccc(Cn2c(CN3CCCC3)nc3ccccc32)cc1 18
